tested on: biotinyl-Leu-oxazolone; assay: self-aminoacylation, catalytic enhancement (BLO) (fold over background); higher = more active; k-Seq, kA / k0A0; sequences stand for … in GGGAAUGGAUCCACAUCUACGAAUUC…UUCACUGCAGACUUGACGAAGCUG
Fewer inactive variants are shown than the library holds.
Readout: self-aminoacylation
I'd appreciate a reply containing only the number, no unit.

Check out these entries, answers already filled in.
seq_text="CAACACUUCAACCAAUCGGUC [Fam1B.1 aminoacylation ribozyme variant]" system_under_test=biotinyl-Leu-oxazolone readout=self-aminoacylation endpoint_result=2.04
seq_text="AUCCACCUAGGUCAUCGGCUG [Fam2.2 aminoacylation ribozyme variant]" system_under_test=biotinyl-Leu-oxazolone readout=self-aminoacylation endpoint_result=2.87
seq_text="AUUACCAUGGUCAUCGAGAGA [Fam2.1 aminoacylation ribozyme variant]" system_under_test=biotinyl-Leu-oxazolone readout=self-aminoacylation endpoint_result=0.937

Could you now look at the following sequence, please?
Query: Using the record for AUUACCAUGGUCAUCGAGUAA [Fam2.1 aminoacylation ribozyme variant] , report its self-aminoacylation.
Reply: 1.33

====

test system: biotinyl-Trp-oxazolone; assay: self-aminoacylation, catalytic enhancement (BWO) (fold over background); higher = more active; k-Seq, kA / k0A0; sequences stand for … in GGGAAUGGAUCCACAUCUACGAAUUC…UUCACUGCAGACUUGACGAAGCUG
Fewer inactive variants are shown than the library holds.
# Lookup of reported self-aminoacylation keyed by entry
Form: value (number only, do not type unit).

Example entries begin here.
seq_text="AAGUUUGCAAAUAGUCGCAAA [Fam3.1 aminoacylation ribozyme variant]" endpoint_result=1.21
seq_text="AGGUUUGCUAAUAGUCGCAAG [Fam3.1 aminoacylation ribozyme variant]" endpoint_result=6.61
seq_text="CUACUUAAAACAAUCGGUCUU [Fam1A.1 aminoacylation ribozyme variant]" endpoint_result=0.524

Query: Given CCACUCUGCAAGCAAUCGGUC [Fam1B.1 aminoacylation ribozyme variant] , state its recorded self-aminoacylation.
Reply: 1.09

====

Item-by-item account of self-aminoacylation
tested on: biotinyl-Val-oxazolone; assay: self-aminoacylation, catalytic enhancement (BVO) (fold over background); higher = more active; k-Seq, kA / k0A0; sequences stand for … in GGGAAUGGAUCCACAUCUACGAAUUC…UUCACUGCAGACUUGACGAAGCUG
Fewer inactive variants are shown than the library holds.
I only need the number, thanks.

Below: 2 sequences and their reported self-aminoacylation.
seq_text="GUUACCCUGGUCACCGAGUGA [Fam2.1 aminoacylation ribozyme variant]" endpoint_result=6.95
seq_text="AAGUGUGCUAAUGGUCGCAAG [Fam3.1 aminoacylation ribozyme variant]" endpoint_result=1.06

Query: So what's the measured self-aminoacylation for this one? CUGCUUCAUACAAUCGGUCUG [Fam1A.1 aminoacylation ribozyme variant]
Reply: 0.602

Query: Lookup CUACUUCAAACAAUAGGGCUG [Fam1A.1 aminoacylation ribozyme variant]
Reply: 0.631

Query: Similarly, AAAUUUGCGAAUAGUCGCAAG [Fam3.1 aminoacylation ribozyme variant] ?
Reply: 1.56

====

system: biotinyl-Val-oxazolone; assay: self-aminoacylation, catalytic enhancement (BVO) (fold over background); higher = more active; k-Seq, kA / k0A0; sequences stand for … in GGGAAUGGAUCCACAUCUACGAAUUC…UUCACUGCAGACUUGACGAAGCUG
Fewer inactive variants are shown than the library holds.
Readout: self-aminoacylation
Keep it simple and answer with nothing but the number.

Query: Please look up its self-aminoacylation: CCCCACUUCAAGCAAUCGAUC [Fam1B.1 aminoacylation ribozyme variant]
Reply: 0.93

Query: Further, for AUUCACCUAGGUCAUCGCGUU [Fam2.2 aminoacylation ribozyme variant] ?
Reply: 2.39

====

system: biotinyl-Trp-oxazolone; assay: self-aminoacylation, catalytic enhancement (BWO) (fold over background); higher = more active; k-Seq, kA / k0A0; sequences stand for … in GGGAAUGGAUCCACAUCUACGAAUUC…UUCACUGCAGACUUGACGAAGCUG
Fewer inactive variants are shown than the library holds.
Would you mind classing the entries by self-aminoacylation? Ranges: LOW = under 0.9, MID = from 0.9 up to 6, HIGH = 6 and over

Query: Class for CCGCACUUCAAGCAAUCGGUC [Fam1B.1 aminoacylation ribozyme variant] ?
Reply: HIGH

Query: Another sequence to look at: AAGUUUGCUAAUAGUCGCUAU [Fam3.1 aminoacylation ribozyme variant]
Reply: MID

Query: Record: AUCCACCUAGGUCAACGGGUG [Fam2.2 aminoacylation ribozyme variant]
Reply: MID

Query: How about CCACACUUCAAGCAAUCCGUA [Fam1B.1 aminoacylation ribozyme variant] ?
Reply: LOW

Query: Same thing, different sequence: CAACGCUUCAAGCAAUCGGUC [Fam1B.1 aminoacylation ribozyme variant]
Reply: HIGH

Query: One more sequence: AUUACCCUGGUCAUCGAUUGU [Fam2.1 aminoacylation ribozyme variant]
Reply: LOW

Query: // next record AUUAACCUGGUCAUCGAGUGU [Fam2.1 aminoacylation ribozyme variant]
Reply: MID

Query: Same thing, different sequence: CUUCUUCAAACAAUAGGUCUG [Fam1A.1 aminoacylation ribozyme variant]
Reply: LOW

Query: Repeat with AAGUUUGCGAAUAGUCGAAAG [Fam3.1 aminoacylation ribozyme variant]
Reply: LOW

Query: Also need AUUACCCUGGACAUAGAGUGA [Fam2.1 aminoacylation ribozyme variant] , thanks.
Reply: HIGH

Query: Now consider AUGACCCUGGUCACCGAGUGA [Fam2.1 aminoacylation ribozyme variant] and answer again.
Reply: HIGH

Query: Same again, this time with AUUCACCUAGGUGACCGGGUG [Fam2.2 aminoacylation ribozyme variant]
Reply: HIGH

Query: AAGAUUGCUAAUAGUCGCAAG [Fam3.1 aminoacylation ribozyme variant] , same question.
Reply: MID

Query: Note, next up: AUUCACCUAGGUACUCGGGUG [Fam2.2 aminoacylation ribozyme variant]
Reply: MID

====

tested on: biotinyl-Phe-oxazolone; experiment: self-aminoacylation, catalytic enhancement (BFO) (fold over background); higher = more active; k-Seq, kA / k0A0; sequences stand for … in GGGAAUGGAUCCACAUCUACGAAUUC…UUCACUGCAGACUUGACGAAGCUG
Variants at the floor of the assay were thinned out.
Label scheme for self-aminoacylation: lower than 20 is F, 20 and above is T.

seq_text="AUUCGCCUAGUUCAUCGGGUG [Fam2.2 aminoacylation ribozyme variant]" label_value=F
seq_text="AUUCACCUAGGCCAUCGGGUU [Fam2.2 aminoacylation ribozyme variant]" label_value=F
seq_text="AUGCAGCUAGGUCAUCGGGUG [Fam2.2 aminoacylation ribozyme variant]" label_value=T

Query: Does AUUCCCCUAGGUCAUCGCGUG [Fam2.2 aminoacylation ribozyme variant] have a reported self-aminoacylation of at least 20?
Reply: T

Query: Now the same for GUACUUCAAACGAUCGGUCUG [Fam1A.1 aminoacylation ribozyme variant]
Reply: F

Query: Next up: AUUACCAUGGUCAGCGAGUGA [Fam2.1 aminoacylation ribozyme variant]
Reply: T

====

test system: biotinyl-Leu-oxazolone; experiment: self-aminoacylation, catalytic enhancement (BLO) (fold over background); higher = more active; k-Seq, kA / k0A0; sequences stand for … in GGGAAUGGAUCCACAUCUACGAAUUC…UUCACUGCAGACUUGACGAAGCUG
This sample holds only a part of the variants without activity.
Kind request: treat 0.9 as inclusive, so self-aminoacylation at 0.9 or higher is yes, anything lower is no.

As a guide, the following entries are already answered.
seq_text="CUACUUCAAACGAGCGGUCUG [Fam1A.1 aminoacylation ribozyme variant]" label_value=no
seq_text="AAGUUUGCUUAUAGUCGCUAG [Fam3.1 aminoacylation ribozyme variant]" label_value=no
seq_text="ACGGUUGCUAAUAGUCGCAAG [Fam3.1 aminoacylation ribozyme variant]" label_value=yes

Query: Quick check, self-aminoacylation >= 0.9? CCACACGUCAAGCAAUCGAUC [Fam1B.1 aminoacylation ribozyme variant]
Reply: no

Query: Another sequence to check: AUUACCCUGGUGAUCGAGUGA [Fam2.1 aminoacylation ribozyme variant]
Reply: yes

====

test system: biotinyl-Val-oxazolone; assay: self-aminoacylation, catalytic enhancement (BVO) (fold over background); higher = more active; k-Seq, kA / k0A0; sequences stand for … in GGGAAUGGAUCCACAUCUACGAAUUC…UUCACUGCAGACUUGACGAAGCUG
Variants at the floor of the assay were thinned out.
Entries and their self-aminoacylation
// no unit string in output, number only

seq_text="AUUCACCCAGGUUAUCGGGUG [Fam2.2 aminoacylation ribozyme variant]" system_under_test=biotinyl-Val-oxazolone readout=self-aminoacylation endpoint_result=3.33

Query: Bench note: what self-aminoacylation did CUACUUCAUACAAUCGGGCUG [Fam1A.1 aminoacylation ribozyme variant] show?
Reply: 0.994

Query: Then this sequence: AUACUUCAAACAAUCGGUAUG [Fam1A.1 aminoacylation ribozyme variant]
Reply: 0.744

Query: Queued: CUAUUUCAAACCAUCGGUCUG [Fam1A.1 aminoacylation ribozyme variant]
Reply: 0.988

Query: Next sequence up: AAUCACCUCGGUCAUCGGGUG [Fam2.2 aminoacylation ribozyme variant]
Reply: 5.23

Query: Same read-out for AUUACCCCGGUCAUUGAGUGA [Fam2.1 aminoacylation ribozyme variant] ?
Reply: 3.79

Query: Now this one: AUUCACCUAGGUCAUAGGGUA [Fam2.2 aminoacylation ribozyme variant]
Reply: 1.16

Query: Query CUACUCCAAACAAUUGGUCUG [Fam1A.1 aminoacylation ribozyme variant] next
Reply: 1.03

Query: Another: AUUACCCUGGUCAUCAAGGGA [Fam2.1 aminoacylation ribozyme variant]
Reply: 1.13
